# SYSTEM_UNDER_TEST: GST-Bc1-2 (Homo sapiens, UniProt P10415)
# Sequence (P10415 whole entry): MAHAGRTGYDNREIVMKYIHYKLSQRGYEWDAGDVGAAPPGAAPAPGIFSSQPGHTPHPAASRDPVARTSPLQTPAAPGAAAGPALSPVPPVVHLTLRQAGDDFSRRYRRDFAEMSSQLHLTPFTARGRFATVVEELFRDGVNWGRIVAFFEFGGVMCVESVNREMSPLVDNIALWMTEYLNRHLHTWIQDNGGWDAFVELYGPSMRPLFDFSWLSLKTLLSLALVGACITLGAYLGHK
# PROCEDURE_SUMMARY: Time Resolved-Fluorescence Resonance Energy Transfer (TR-FRET) Bcl-2 binding assay with F-Bak peptide probe
# MEASUREMENT_CONTEXT: GST-Bcl-2 1 nM, F-Bak probe 100 nM, Tb-anti-GST 1 nM; '<' = below limit of detection; read-out: TR-FRET Bcl-2 Binding Ki
READOUT_KIND: pKi
Numbers only, as −log10 of the molar value.

COMPOUND	SYSTEM_UNDER_TEST	READOUT_NUMBER
CC1(C)CCC(CN2CCN(c3ccc(C(=O)NS(=O)(=O)c4ccc(NC(=O)N5CCC(C)(O)CC5)c(Cl)c4)c(Oc4cnc5[nH]ccc5c4)c3)CC2)=C(c2ccc(Cl)cc2)C1 [Example 394]	GST-Bc1-2 (Homo sapiens, UniProt P10415)	9.88

Need pKi for each of these compounds.
1. COC1CCN(C(=O)Nc2ccc(S(=O)(=O)NC(=O)c3ccc(N4CCN(CC5=C(c6ccc(Cl)cc6)CC(C)(C)CC5)CC4)cc3Oc3cnc4[nH]ccc4c3)cc2Cl)CC1 [Example 392]
2. CC1(C)CCC(CN2CCN(c3ccc(C(=O)NS(=O)(=O)c4ccc(NC5CCN(CC(F)(F)F)CC5)c([N+](=O)[O-])c4)c(Oc4cnc5[nH]ccc5c4)c3)CC2)=C(c2ccc(Cl)cc2)C1 [Example 83]
3. CC1(C)CCC(CN2CCN(c3ccc(C(=O)NS(=O)(=O)c4ccc(OCC5(F)CCOCC5)c(C(F)(F)F)c4)c(Oc4cnc5[nH]ccc5c4)c3)CC2)=C(c2ccc(Cl)cc2)C1 [Example 307]

OUT:
1. 9.77
2. 10.15
3. 9.89
